tested on: T1, human TF ECD-His6 (human, UniProt P13726 33-251)
T1 construct: Expi293-derived; Biacore used TF-His; also called TF-His; hTF
method description: SPR (Biacore), TF-His over coupled antibody
The binders listed here are annotated with their pKd.
Scale explanation: pKd corresponds to minus log10 of a concentration expressed in moles per litre.

Which pKd is listed for 54E (antibody, human IgG1, V domains shown, Human IgG1; also called antibody designated 54E) VH: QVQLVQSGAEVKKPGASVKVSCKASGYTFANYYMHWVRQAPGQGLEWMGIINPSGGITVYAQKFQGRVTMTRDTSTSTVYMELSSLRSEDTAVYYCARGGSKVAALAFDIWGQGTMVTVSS VL: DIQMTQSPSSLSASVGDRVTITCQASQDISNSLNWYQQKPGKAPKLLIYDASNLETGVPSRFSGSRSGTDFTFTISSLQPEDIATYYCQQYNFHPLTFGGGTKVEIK ?
9.38

Which pKd reading was recorded for the binder 39A (antibody, human IgG1, V domains shown, Human IgG1; also called antibody designated 39A) VH: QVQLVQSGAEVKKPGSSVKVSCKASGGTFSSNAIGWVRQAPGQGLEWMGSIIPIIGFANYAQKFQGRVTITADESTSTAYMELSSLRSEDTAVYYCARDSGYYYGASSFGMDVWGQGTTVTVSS VL: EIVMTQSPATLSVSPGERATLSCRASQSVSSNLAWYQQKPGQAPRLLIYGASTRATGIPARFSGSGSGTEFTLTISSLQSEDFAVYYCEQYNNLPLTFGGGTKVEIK ?
10.05

Find the recorded pKd belonging to 43B (antibody, human IgG1, V domains shown, Human IgG1; also called antibody designated 43B) VH: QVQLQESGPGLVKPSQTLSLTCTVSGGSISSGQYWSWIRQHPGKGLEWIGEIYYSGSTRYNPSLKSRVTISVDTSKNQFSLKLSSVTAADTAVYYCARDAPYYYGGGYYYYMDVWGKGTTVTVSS VL: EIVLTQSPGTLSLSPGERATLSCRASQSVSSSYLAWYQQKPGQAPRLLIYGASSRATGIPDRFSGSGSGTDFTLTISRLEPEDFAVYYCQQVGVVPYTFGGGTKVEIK and report it.
8.76

Which measured pKd value corresponds to 25A3 (antibody, human IgG1, V domains shown, Human IgG1; also called antibody designated 25A3) VH: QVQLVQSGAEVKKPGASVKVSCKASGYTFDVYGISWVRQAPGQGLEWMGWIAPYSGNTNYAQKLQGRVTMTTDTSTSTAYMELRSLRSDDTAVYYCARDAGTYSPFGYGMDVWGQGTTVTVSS VL: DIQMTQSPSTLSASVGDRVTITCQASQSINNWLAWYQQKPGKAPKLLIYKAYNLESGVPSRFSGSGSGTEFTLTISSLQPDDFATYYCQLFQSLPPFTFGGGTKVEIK ?
9.44

Any idea what its pKd is? The binder is 25A5 (antibody, human IgG1, V domains shown, Human IgG1; also called antibody designated 25A5) VH: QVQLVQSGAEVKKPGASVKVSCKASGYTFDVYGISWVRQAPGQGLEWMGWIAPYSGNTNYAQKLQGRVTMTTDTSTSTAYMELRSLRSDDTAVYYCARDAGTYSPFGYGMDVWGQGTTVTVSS VL: DIQMTQSPSTLSASVGDRVTITCRASESISNWLAWYQQKPGKAPKLLIYKAYSLEYGVPSRFSGSGSGTEFTLTISSLQPDDFATYYCQQFQKLPPFTFGGGTKVEIK
10.10
